Collected Emax values appear next to each entry.
Biological target: hAT1R (Homo sapiens)
Assay: FLIPR calcium flux assay, Part II: antagonist activity against Angiotensin II
Format: cell-based
Conditions: read-out: hAT1R Antagonist Efficacy Antag (%) Ave
Procedure: AT1 receptor (AT1R) agonists increase intracellular flux of calcium ions. AT1R antagonists can reduce the agonist effect. […] Intracellular flux of calcium in response to agonist was measured through real-time measurement of fluorescence induced through the interaction of Ca2+ (released from intracellular stores) and calcium-sensitive dye. In Part I, cells were exposed to varying concentrations of test compounds and immediately measured for agonist activity (EC50 and Efficacy). […]
Starred links: 1 amine or outer side, 2 acyl side, 3 side chain; linkers in the order of their positions; H or OH if unused. Non-standard residues stand in square brackets, D forms with d. Residues, ends and D or L forms follow the SMILES beside them. X1 = O=C(CN(C[C@H](O)[C@@H](O)[C@H](O)[C@H](O)CO)[*:1])[*:2]; dBta = N[C@H](Cc1csc2ccccc12)C(=O)O; Chg = N[C@H](C(=O)O)C1CCCCC1
Output spec: scalar in %, unitless text.

Examples with their reported Emax follow.
compound="CNCC(=O)N[C@@H](CCCNC(=N)N)C(=O)N[C@H](C(=O)N[C@@H](Cc1ccc(O)cc1)C(=O)N[C@H](C(=O)N[C@@H](Cc1c[nH]cn1)C(=O)N1CCC[C@H]1C(=O)N[C@H](Cc1csc2ccccc12)C(=O)O)C1CCCCC1)C(C)C [Compound 35] (HELM PEPTIDE1{[Sar].R.V.Y.[O=C([C@@H](N[*:1])C1CCCCC1)[*:2]].H.P.[O=C(O)[C@@H](Cc1csc2ccccc12)N[*:1]]}$$$$V2.0)" measured_target="hAT1R (Homo sapiens)" measured_quantity=Emax unit=% assay_result=100
compound=CC[C@H](C)[C@H](NC(=O)[C@H](Cc1ccc(O)cc1)NC(=O)[C@@H](NC(=O)[C@H](CCCNC(=N)N)NC(=O)CNC)C(C)C)C(=O)N[C@@H](Cc1c[nH]cn1)C(=O)N1CCC[C@H]1C(=O)N[C@H](Cc1ccccc1Cl)C(=O)O measured_target="hAT1R (Homo sapiens)" measured_quantity=Emax unit=% assay_result=100
compound="CC(C)[C@H](NC(=O)[C@H](CCCNC(=N)N)NC(=O)CNC[C@H](O)[C@@H](O)[C@H](O)[C@H](O)CO)C(=O)N[C@@H](Cc1ccc(O)cc1)C(=O)N[C@H](C(=O)N[C@@H](Cc1c[nH]cn1)C(=O)N1CCC[C@H]1C(=O)N[C@H](Cc1csc2ccccc12)C(=O)O)C1CCCCC1 [Compound 41] (H-[X1]RVY[Chg]HP[dBta]-OH)" measured_target="hAT1R (Homo sapiens)" measured_quantity=Emax unit=% assay_result=101

# compound CNCC(=O)N[C@@H](CCCNC(=N)N)C(=O)N[C@H](C(=O)N[C@@H](Cc1ccc(N)cc1)C(=O)N[C@H](C(=O)N[C@@H](Cc1c[nH]cn1)C(=O)N1CCC[C@H]1C(=O)N[C@H](Cc1ccccc1Cl)C(=O)O)C(C)C)C(C)C [Compound 33] (HELM PEPTIDE1{[Sar].R.V.[Nc1ccc(C[C@H](N[*:1])C(=O)[*:2])cc1].V.H.P.[O=C(O)[C@@H](Cc1ccccc1Cl)N[*:1]]}$$$$V2.0) ; its Emax = 100

# compound CNCC(=O)N[C@@H](CCCNC(=N)N)C(=O)N[C@H](C(=O)N[C@@H](Cc1ccc(O)cc1)C(=O)N[C@H](C(=O)N[C@@H](Cc1c[nH]cn1)C(=O)N1CCC[C@H]1C(=O)N[C@H](Cc1ccccc1Cl)C(=O)O)C1CCCCC1)C(C)C [Compound 19] (HELM PEPTIDE1{[Sar].R.V.Y.[O=C([C@@H](N[*:1])C1CCCCC1)[*:2]].H.P.[O=C(O)[C@@H](Cc1ccccc1Cl)N[*:1]]}$$$$V2.0) ; its Emax = 99

# compound CNCC(=O)N[C@@H](CCCNC(=N)N)C(=O)N[C@H](C(=O)N[C@@H](Cc1ccc(O)cc1)C(=O)N[C@@H](Cc1cccs1)C(=O)N[C@@H](Cc1c[nH]cn1)C(=O)N1CCC[C@H]1C(=O)N[C@H](Cc1ccccc1Cl)C(=O)O)C(C)C [Compound 23] (HELM PEPTIDE1{[Sar].R.V.Y.[O=C([C@H](Cc1cccs1)N[*:1])[*:2]].H.P.[O=C(O)[C@@H](Cc1ccccc1Cl)N[*:1]]}$$$$V2.0) ; its Emax = 98

# compound CNCC(=O)N[C@@H](CCCNC(=N)N)C(=O)N[C@H](C(=O)N[C@@H](Cc1ccc(O)cc1)C(=O)N[C@H](C(=O)N[C@@H](Cc1c[nH]cn1)C(=O)N1CCC[C@H]1C(=O)N[C@H](Cc1cccc2ccccc12)C(=O)O)C1CCCCC1)C(C)C [Compound 34, Sar-Arg-Val-Tyr-Chg-His-Pro-(D-1Nal)-OH] (HELM PEPTIDE1{[Sar].R.V.Y.[O=C([C@@H](N[*:1])C1CCCCC1)[*:2]].H.P.[O=C(O)[C@@H](Cc1cccc2ccccc12)N[*:1]]}$$$$V2.0) ; its Emax = 100

###

Target: hAT1R (Homo sapiens, UniProt P30556)
Sequence (P30556 whole entry): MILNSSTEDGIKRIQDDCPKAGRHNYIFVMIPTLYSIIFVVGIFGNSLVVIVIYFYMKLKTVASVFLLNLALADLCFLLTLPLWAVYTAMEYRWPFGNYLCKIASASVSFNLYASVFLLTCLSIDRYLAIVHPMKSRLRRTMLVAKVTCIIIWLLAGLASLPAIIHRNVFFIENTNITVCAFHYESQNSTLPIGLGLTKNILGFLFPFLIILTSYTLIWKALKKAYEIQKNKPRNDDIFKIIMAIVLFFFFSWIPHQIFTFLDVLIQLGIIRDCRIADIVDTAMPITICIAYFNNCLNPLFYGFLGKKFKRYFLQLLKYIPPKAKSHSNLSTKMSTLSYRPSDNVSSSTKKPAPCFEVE
Test: FLIPR calcium flux assay, Part I: agonist activity
Type: cell-based
Details: ChanTest hAT1R stable cells; % MPE, percent of the maximal possible effect; read-out: hAT1R Agonist Efficacy Agonist (%) Ave
Residues, ends and D or L forms follow the SMILES beside them.
Measured Quantity: Emax (%)
Output spec: scalar in %, unitless text.

Examples with their reported Emax follow.
compound="CNCC(=O)N[C@@H](CCCNC(=N)N)C(=O)N[C@H](C(=O)N[C@@H](Cc1ccc(O)cc1)C(=O)N[C@H](C(=O)N[C@@H](Cc1c[nH]cn1)C(=O)N1CCC[C@H]1C(=O)N[C@H](Cc1csc2ccccc12)C(=O)O)C(C)C)C(C)C [Compound 10] (HELM PEPTIDE1{[Sar].R.V.Y.V.H.P.[O=C(O)[C@@H](Cc1csc2ccccc12)N[*:1]]}$$$$V2.0)" measured_quantity=Emax assay_result=5
compound="CC[C@H](C)[C@H](NC(=O)[C@H](Cc1ccc(O)cc1)NC(=O)[C@@H](NC(=O)[C@H](CCCNC(=N)N)NC(=O)CNC)C(C)C)C(=O)N[C@@H](Cc1c[nH]cn1)C(=O)N1CCC[C@H]1C(=O)N[C@H](Cc1ccccc1)C(=O)O [Ref. Cpd. 2, Sar-Arg-Val-Tyr-Ile-His-Pro-D-Phe-OH, reference compound]" measured_quantity=Emax assay_result=25

Read the next record carefully.
# compound CC[C@H](C)[C@H](NC(=O)[C@H](Cc1ccc(O)cc1)NC(=O)[C@@H](NC(=O)[C@H](CCCNC(=N)N)NC(=O)CNC)C(C)C)C(=O)N[C@@H](Cc1c[nH]cn1)C(=O)N1CCC[C@H]1C(=O)N[C@H](Cc1ccccc1Cl)C(=O)O ; its Emax = 2

###

Molecular target: hAT1R (Homo sapiens, UniProt P30556)
Test: FLIPR calcium flux assay, Part II: antagonist activity against Angiotensin II; also: Angiotensin II 10 nM final concentration
Type: cell-based
Details: read-out: hAT1R Antagonist Efficacy Antag (%) Ave
Starred links: 1 amine or outer side, 2 acyl side, 3 side chain; linkers in the order of their positions; H or OH if unused. Non-standard residues stand in square brackets, D forms with d. Residues, ends and D or L forms follow the SMILES beside them. X1 = O=C(CN(C[C@H](O)[C@@H](O)[C@H](O)[C@H](O)CO)[*:1])[*:2]; dPhe(2-Me) = Cc1ccccc1C[C@@H](N)C(=O)O; Gly(cPent) = N[C@H](C(=O)O)C1CCCC1
Measured Quantity: Emax (%)
Output spec: scalar in %, unitless text.

Examples with their reported Emax follow.
compound="Cc1ccccc1C[C@@H](NC(=O)[C@@H]1CCCN1C(=O)[C@H](Cc1c[nH]cn1)NC(=O)[C@@H](NC(=O)[C@H](Cc1ccc(O)cc1)NC(=O)[C@@H](NC(=O)[C@H](CCCNC(=N)N)NC(=O)CNC[C@H](O)[C@@H](O)[C@H](O)[C@H](O)CO)C(C)C)C1CCCC1)C(=O)O [Compound 44] (H-[X1]RVY[Gly(cPent)]HP[dPhe(2-Me)]-OH)" assay_result=101
compound="CC(C)[C@H](NC(=O)[C@H](CCCNC(=N)N)NC(=O)CNC[C@H](O)[C@@H](O)[C@H](O)[C@H](O)CO)C(=O)N[C@@H](Cc1ccc(O)cc1)C(=O)N[C@H](C(=O)N[C@@H](Cc1c[nH]cn1)C(=O)N1CCC[C@H]1C(=O)N[C@H](Cc1csc2ccccc12)C(=O)O)C(C)C [Compound 38] (HELM PEPTIDE1{[O=C(CNC[C@H](O)[C@@H](O)[C@H](O)[C@H](O)CO)[*:2]].R.V.Y.V.H.P.[O=C(O)[C@@H](Cc1csc2ccccc12)N[*:1]]}$$$$V2.0)" assay_result=101

Read the next record carefully.
Case CNCC(=O)N[C@@H](CCCNC(=N)N)C(=O)N[C@H](C(=O)N[C@@H](Cc1ccc(O)cc1)C(=O)N[C@@H](CCCCN)C(=O)N[C@@H](Cc1c[nH]cn1)C(=O)N1CCC[C@H]1C(=O)N[C@H](Cc1cccc2ccccc12)C(=O)O)C(C)C [Compound 2, Sar-Arg-Val-Tyr-Lys-His-Pro-(D-1Nal)-OH] (HELM PEPTIDE1{[Sar].R.V.Y.K.H.P.[O=C(O)[C@@H](Cc1cccc2ccccc12)N[*:1]]}$$$$V2.0) , hAT1R (Homo sapiens, UniProt P30556), Emax recorded as 100
